The reported numbers originate from paper PMC11661381.

The entries below come with measured CC50 at 48 h values attached.
TEST NAME: Cytotoxicity assay (CellTiter-Blue)
Format: cell-based
TEST PARAMETERS: human; HEK293 cells, 48hr of incubation

| MOLECULE | CC50 at 48 h |
| --- | --- |
| OB(O)c1ccc(C(F)(F)F)s1 | > 200 µM |
| OB(O)c1csc2ccccc12 [Z27, Benzo[b]thiophen-3-ylboronic acid] | > 200 µM |

###

TGT: recombinant FphH (rFphH) (Staphylococcus aureus)
Sequence (A0A0H2XJL0 1-246): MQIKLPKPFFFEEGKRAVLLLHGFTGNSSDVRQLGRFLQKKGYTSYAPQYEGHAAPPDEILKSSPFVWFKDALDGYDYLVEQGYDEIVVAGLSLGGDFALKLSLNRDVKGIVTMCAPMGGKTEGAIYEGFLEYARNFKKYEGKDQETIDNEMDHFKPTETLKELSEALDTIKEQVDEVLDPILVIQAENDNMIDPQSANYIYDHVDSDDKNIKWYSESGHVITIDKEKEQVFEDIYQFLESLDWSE
TEST NAME: biochemical
TEST PARAMETERS: IC50 (μM) FphH, 5 nM rFphH, 1 hr preincubation, 0.01–50 μM; N.D. = IC50 could not be determined due to incomplete inhibition at the highest concentration tested

| STRUCTURE SMILES STRING | TGT | UOM | IC50 |
| --- | --- | --- | --- |
| CN1CCCN(C(=O)c2ccc(S(=O)(=O)F)cc2)c2ccccc21 | recombinant FphH (rFphH) (Staphylococcus aureus) | µM | 3 |

###

TGT: recombinant FphE (rFphE) (Staphylococcus aureus)
Construct: otherwise full-length FphE (Uniprot ID Q2FDS6) and FphH (A0A0H2XJL0) proteins; His6 (3C-cleavable, pETNKI-his-3C-LIC vector) (N); made in house; E. coli is inferred from the pET28a-type vector, IPTG induction and LB/kanamycin
Sequence (Q2FDS6 whole entry): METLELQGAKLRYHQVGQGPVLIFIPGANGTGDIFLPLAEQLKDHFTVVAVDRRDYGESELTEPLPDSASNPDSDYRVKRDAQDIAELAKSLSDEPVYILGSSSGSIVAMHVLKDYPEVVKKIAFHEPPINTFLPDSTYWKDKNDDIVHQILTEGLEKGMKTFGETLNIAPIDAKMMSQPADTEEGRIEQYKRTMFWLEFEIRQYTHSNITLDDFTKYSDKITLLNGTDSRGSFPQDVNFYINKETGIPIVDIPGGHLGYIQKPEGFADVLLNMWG
TEST NAME: biochemical
TEST PARAMETERS: IC50 rFphE, value in nM
MEASURED ENDPOINT: IC50

| COMPOUND | OBSERVED RESULT |
| --- | --- |
| OB(O)c1csc2ccccc12 [Z27, Benzo[b]thiophen-3-ylboronic acid] | 50 nM |
